target.entity: UniProtKB Q8NB16
Sequence (Q8NB16 whole entry): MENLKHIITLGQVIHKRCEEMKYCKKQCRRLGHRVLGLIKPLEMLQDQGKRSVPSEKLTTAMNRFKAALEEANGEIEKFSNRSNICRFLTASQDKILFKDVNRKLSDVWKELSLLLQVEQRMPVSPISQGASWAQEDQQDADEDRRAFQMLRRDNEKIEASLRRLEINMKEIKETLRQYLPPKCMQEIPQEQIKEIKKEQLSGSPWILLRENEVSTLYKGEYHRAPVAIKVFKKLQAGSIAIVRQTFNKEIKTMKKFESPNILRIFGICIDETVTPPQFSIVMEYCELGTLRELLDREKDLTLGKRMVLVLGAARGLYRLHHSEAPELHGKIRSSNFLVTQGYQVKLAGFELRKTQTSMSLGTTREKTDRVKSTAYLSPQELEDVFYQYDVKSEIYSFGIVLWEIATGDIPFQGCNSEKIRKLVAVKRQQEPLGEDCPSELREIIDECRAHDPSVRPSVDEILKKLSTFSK
assay.details: Degradation assay: endogenous MLKL in U937 (western blot)
experimental.conditions: U937, 24 h incubation, read-out: Degradation of endogenous MLKL in U937 (DC50 cell-based assay)
A collection of molecules and their measured DC50
measurement.type: DC50

molecule: C[C@H](Oc1cc(-c2nn(C)c3c(-c4cnn(C5CCN(C(=O)[C@H]6C[C@H]6C6CCN(c7cccc8c7C(=O)N(C7CCC(=O)NC7=O)C8=O)CC6)CC5)c4)cnc(N)c23)ccc1NS(=O)(=O)C(F)F)c1ccc(F)cc1 (stereo in doubt)
recorded.measurement: < 1 µM
--
molecule: C[C@H](Oc1cc(-c2nn(C)c3c(-c4cnn(C5CCN(CC6CCN(c7cccc8c7C(=O)N(C7CCC(=O)NC7=O)C8=O)C6)CC5)c4)cnc(N)c23)ccc1NS(=O)(=O)C(F)F)c1ccc(F)cc1 (stereo partly shown)
recorded.measurement: < 1 µM
--
molecule: C[C@H](Oc1cc(-c2nn(C)c3c(-c4cnn(C5CCN(C(=O)c6ccc(CNc7cccc8c7C(=O)N(C7CCC(=O)NC7=O)C8=O)cc6)CC5)c4)cnc(N)c23)ccc1NS(=O)(=O)C(F)F)c1ccc(F)cc1 (stereo partly shown)
recorded.measurement: < 1 µM
--
molecule: C[C@H](Oc1cc(-c2nn(C)c3c(-c4cnn(C5CCN(CCCC6CCN(c7cccc8c7C(=O)N(C7CCC(=O)NC7=O)C8=O)CC6)CC5)c4)cnc(N)c23)ccc1NS(=O)(=O)C(F)F)c1ccc(F)cc1 (stereo partly shown)
recorded.measurement: 1 to 10 µM

Recorded values, source patent US20250115598A1.
